IC50 for assorted molecules
# measuredTarget: ABL (Homo sapiens (Human))
# assayInfo: Kinase screening assay (IC50)
# Type: biochemical
# measurementConditions: 10 μM ATP; read-out: Target inhibition (IC50) ABL
measuredMetric: IC50

1) Cc1ccc(-c2nn(CCN3CCN(CCN(C)C)CC3)c3ncnc(N)c23)cc1 [Compound 105]    > 1000 nM
2) Cc1ccc(-c2nn(CCN3CCN(C)CC3)c3ncnc(N)c23)cc1 [Compound 103]    > 1000 nM
3) COc1cc(-c2nn(CCN3CCC(N(C)C)CC3)c3ncnc(N)c23)ccc1NC(=O)CC(C)(C)C [Compound 526]    > 1000 nM
4) COc1cc(-c2nn(CCN3CCC(CN(C)C)CC3)c3ncnc(N)c23)ccc1NC(=O)OC(C)(C)C [Compound 503]    100 to 1000 nM
5) COc1cc(-c2nn(CCN3CCC(N(C)C)CC3)c3ncnc(N)c23)ccc1Cc1ncc(C)o1 [Compound 584]    > 1000 nM
6) CN(C)C1CCN(CCn2nc(-c3ccc(NC(=O)OC(C)(C)C)cc3)c3c(N)ncnc32)CC1 [Compound 543]    > 1000 nM

###

# measuredTarget: hERG channel (Homo sapiens (Human), UniProt Q12809)
# Sequence (Q12809 whole entry): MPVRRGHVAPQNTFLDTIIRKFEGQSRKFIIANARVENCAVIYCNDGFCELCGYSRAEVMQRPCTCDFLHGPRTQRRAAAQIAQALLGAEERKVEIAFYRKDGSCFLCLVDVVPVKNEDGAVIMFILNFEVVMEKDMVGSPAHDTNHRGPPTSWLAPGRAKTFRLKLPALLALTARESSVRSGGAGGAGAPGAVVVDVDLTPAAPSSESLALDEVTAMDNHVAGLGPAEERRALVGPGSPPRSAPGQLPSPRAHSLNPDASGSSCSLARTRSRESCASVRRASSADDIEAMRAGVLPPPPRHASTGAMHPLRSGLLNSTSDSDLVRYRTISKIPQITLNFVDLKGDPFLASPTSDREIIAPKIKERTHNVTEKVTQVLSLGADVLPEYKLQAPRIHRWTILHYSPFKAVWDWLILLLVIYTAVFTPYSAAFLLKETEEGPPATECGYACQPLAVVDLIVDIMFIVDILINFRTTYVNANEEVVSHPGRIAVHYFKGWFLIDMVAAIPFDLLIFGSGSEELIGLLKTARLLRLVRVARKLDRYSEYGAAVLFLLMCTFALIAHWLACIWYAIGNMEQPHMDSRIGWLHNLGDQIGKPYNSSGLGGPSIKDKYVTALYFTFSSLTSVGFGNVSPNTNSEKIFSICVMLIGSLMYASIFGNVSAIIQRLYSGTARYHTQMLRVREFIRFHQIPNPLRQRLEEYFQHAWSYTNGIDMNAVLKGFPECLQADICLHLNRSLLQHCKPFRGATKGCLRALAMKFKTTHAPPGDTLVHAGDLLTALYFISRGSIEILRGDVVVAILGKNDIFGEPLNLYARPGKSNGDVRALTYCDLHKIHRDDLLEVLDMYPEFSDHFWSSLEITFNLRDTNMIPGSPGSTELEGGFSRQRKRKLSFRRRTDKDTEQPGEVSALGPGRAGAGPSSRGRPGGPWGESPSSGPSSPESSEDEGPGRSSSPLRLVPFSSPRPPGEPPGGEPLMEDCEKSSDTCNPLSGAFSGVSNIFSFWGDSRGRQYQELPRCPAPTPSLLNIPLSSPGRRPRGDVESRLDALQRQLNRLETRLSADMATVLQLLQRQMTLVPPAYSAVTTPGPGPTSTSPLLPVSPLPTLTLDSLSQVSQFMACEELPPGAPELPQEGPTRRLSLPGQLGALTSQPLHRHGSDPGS
# assayInfo: Predictor hERG Fluorescence Polarization Assay
# Format: binding
# measurementConditions: fluorescence polarization kit; read-out: hERG channel inhibition IC50
pIC50: −log10 of the molar value.
measuredMetric: pIC50

1. COc1cc(-c2nn(CCN3CCC(N(C)C)CC3)c3ncnc(N)c23)ccc1NCc1ccccc1 [Compound 533]    4.82 to 5.00

###

# measuredTarget: UniProt:P07949
# Sequence (P07949 29-1114): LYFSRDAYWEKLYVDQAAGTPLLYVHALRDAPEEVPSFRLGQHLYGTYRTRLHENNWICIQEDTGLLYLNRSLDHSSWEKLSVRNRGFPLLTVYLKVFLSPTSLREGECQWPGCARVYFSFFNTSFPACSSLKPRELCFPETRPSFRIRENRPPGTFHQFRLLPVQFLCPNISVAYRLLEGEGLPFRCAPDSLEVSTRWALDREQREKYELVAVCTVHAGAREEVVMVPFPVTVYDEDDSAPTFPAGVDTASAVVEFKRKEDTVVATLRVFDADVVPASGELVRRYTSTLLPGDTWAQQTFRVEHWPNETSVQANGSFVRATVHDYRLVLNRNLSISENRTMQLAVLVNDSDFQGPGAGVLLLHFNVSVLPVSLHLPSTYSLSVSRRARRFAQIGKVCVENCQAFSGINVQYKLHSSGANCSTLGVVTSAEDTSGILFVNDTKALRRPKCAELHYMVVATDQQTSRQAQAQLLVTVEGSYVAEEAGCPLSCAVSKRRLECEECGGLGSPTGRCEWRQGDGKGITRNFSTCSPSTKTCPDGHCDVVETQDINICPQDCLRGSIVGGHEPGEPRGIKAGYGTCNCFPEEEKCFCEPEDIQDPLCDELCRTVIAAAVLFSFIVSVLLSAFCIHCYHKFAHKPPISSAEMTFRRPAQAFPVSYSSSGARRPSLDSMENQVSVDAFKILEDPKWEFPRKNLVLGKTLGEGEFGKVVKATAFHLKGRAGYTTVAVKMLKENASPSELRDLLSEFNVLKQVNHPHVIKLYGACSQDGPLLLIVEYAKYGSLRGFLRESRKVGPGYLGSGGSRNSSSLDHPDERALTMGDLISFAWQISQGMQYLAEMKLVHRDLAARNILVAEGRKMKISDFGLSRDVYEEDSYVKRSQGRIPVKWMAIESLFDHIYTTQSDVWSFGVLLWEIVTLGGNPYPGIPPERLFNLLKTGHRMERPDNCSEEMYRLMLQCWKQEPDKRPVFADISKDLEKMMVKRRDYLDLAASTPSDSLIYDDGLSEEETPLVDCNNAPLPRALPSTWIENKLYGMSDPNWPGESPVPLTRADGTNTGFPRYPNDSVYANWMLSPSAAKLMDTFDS
# assayInfo: Kinase screening assay (IC50)
# measurementConditions: read-out: Target inhibition (IC50) RET; 10 μM ATP
Reported IC50 values for a set of compounds
measuredMetric: IC50

1) COc1cc(-c2nn(CCN3CCC(N(C)C)CC3)c3ncnc(N)c23)ccc1NCc1ccccc1    > 1 µM
2) COc1cc(-c2nn(CCN3CCC(CN(C)C)CC3)c3ncnc(N)c23)ccc1NC(=O)OC(C)(C)C    > 1 µM
3) COc1cc(-c2nn(CCN3CCC(N(C)C)CC3)c3ncnc(N)c23)ccc1CC(=O)OC(C)(C)C    > 1 µM
4) COc1cc(-c2nn(CCN3CCC(N4CCCC4)CC3)c3ncnc(N)c23)ccc1NC(=O)OC(C)(C)C    > 1 µM
5) COc1cc(-c2nn(CCN3CCC(N(C)C)CC3)c3ncnc(N)c23)ccc1NC(=O)OC(C)(C)C    > 1 µM
6) CN(C)C1CCN(CCn2nc(-c3ccc(NC(=O)OC(C)(C)C)cc3)c3c(N)ncnc32)CC1    > 1 µM
7) COc1cc(-c2nn(CCN3CCC(N(C)C)CC3)c3ncnc(N)c23)ccc1NC(=O)CC(C)(C)C    > 1 µM

###

Measured IC50, listed per entry for reference.
# measuredTarget: hERG channel (Homo sapiens (Human))
# assayInfo: hERG Safety Assay, Ionworks high-throughput electrophysiology
measuredMetric: IC50 (µM)

1) COc1cc(-c2nn(CCN3CCC(N(C)C)CC3)c3ncnc(N)c23)ccc1NCc1ccccc1    2.55
2) COc1cc(-c2nn(CCN3CCC(N4CCCCC4)CC3)c3ncnc(N)c23)ccc1NC(=O)OC(C)(C)C    12.6
3) CN(C)C1CCN(CCn2nc(-c3ccc(CC(=O)OC(C)(C)C)cc3)c3c(N)ncnc32)CC1    12.6
4) COc1cc(-c2nn(CCN3CCC(N(C)C)CC3)c3ncnc(N)c23)ccc1NC(=O)OC(C)(C)C    18.2
5) COc1cc(-c2nn(CCN3CCC(N4CCCC4)CC3)c3ncnc(N)c23)ccc1NC(=O)OC(C)(C)C    20.1

###

Entries and their measured pEC50 follow.
# Tested on: MCF7 cells
# assayInfo: Cell viability assay (PrestoBlue)
# Format: cell-based
# measurementConditions: Homo sapiens, MCF7, 120 h; cell viability at day 5; read-out: Antiproliferative activity (EC50) MCF7
pEC50: −log10 of the molar value.
measuredMetric: pEC50

1. CN(C)CC1CCN(CCn2nc(I)c3c(N)ncnc32)CC1 [Compound 232]    < 5.00
2. CN(C)C1CCN(CCn2nc(-c3ccc(CC(=O)O)cc3)c3c(N)ncnc32)CC1 [Compound 556]    < 5.00
3. COc1cc(-c2nn(CCN3CCC(N(C)C)CC3)c3ncnc(N)c23)ccc1N [Compound 532]    5.00 to 6.00
4. CN(C)CC1CCN(CCn2nc(-c3ccoc3)c3c(N)ncnc32)CC1 [Compound 226]    < 5.00
5. CN(C)C1CCN(CCn2nc(-c3cccc(NC(=O)OC(C)(C)C)c3)c3c(N)ncnc32)CC1 [Compound 542]    < 5.00

###

Each item that follows carries a reported pIC50.
# measuredTarget: LYN (Homo sapiens (Human), UniProt P07948)
# Sequence (P07948 whole entry): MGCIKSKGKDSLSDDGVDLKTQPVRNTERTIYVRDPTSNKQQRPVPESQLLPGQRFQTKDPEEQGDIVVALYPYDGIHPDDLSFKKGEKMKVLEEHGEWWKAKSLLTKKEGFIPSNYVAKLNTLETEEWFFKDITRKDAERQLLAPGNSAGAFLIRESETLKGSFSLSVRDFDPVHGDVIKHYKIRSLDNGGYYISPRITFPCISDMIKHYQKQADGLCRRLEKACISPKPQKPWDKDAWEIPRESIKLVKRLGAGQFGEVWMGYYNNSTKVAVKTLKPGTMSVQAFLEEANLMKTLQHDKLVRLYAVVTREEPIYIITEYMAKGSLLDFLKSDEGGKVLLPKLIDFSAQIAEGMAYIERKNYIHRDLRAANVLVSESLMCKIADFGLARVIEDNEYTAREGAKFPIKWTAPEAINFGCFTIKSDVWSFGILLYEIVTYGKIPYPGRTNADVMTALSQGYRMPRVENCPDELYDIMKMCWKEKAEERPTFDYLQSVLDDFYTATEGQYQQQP
# assayInfo: Kinase screening assay (IC50)
# measurementConditions: read-out: Kinase Screening (IC50) LYN; Src Family
pIC50: −log10 of the molar value.
measuredMetric: pIC50

1) COc1cc(-c2nn(CCN3CCC(N4CCCCC4)CC3)c3ncnc(N)c23)ccc1NC(=O)OC(C)(C)C [Compound 519]    > 8.00
2) COc1cc(-c2nn(CCN3CCC(N4CCCC4)CC3)c3ncnc(N)c23)ccc1NC(=O)OC(C)(C)C [Compound 518]    > 8.00
3) COc1cc(-c2nn(CCN3CCC(N(C)C)CC3)c3ncnc(N)c23)ccc1CC(=O)OC(C)(C)C [Compound 565]    > 8.00
4) COc1cc(-c2nn(CCN3CCC(N(C)C)CC3)c3ncnc(N)c23)ccc1NCc1ccccc1 [Compound 533]    > 8.00
5) CN(C)C1CCN(CCn2nc(-c3ccc(CC(=O)OC(C)(C)C)cc3)c3c(N)ncnc32)CC1 [Compound 553]    > 8.00

###

# assayInfo: in vivo
# measurementConditions: female, mouse
measuredMetric: bioavailability (%)

1. COc1cc(-c2nn(CCN3CCC(N(C)C)CC3)c3ncnc(N)c23)ccc1CC(=O)OC(C)(C)C [Compound 565]    52

###

# measuredTarget: KIT (Homo sapiens (Human), UniProt P10721)
# Sequence (P10721 26-976): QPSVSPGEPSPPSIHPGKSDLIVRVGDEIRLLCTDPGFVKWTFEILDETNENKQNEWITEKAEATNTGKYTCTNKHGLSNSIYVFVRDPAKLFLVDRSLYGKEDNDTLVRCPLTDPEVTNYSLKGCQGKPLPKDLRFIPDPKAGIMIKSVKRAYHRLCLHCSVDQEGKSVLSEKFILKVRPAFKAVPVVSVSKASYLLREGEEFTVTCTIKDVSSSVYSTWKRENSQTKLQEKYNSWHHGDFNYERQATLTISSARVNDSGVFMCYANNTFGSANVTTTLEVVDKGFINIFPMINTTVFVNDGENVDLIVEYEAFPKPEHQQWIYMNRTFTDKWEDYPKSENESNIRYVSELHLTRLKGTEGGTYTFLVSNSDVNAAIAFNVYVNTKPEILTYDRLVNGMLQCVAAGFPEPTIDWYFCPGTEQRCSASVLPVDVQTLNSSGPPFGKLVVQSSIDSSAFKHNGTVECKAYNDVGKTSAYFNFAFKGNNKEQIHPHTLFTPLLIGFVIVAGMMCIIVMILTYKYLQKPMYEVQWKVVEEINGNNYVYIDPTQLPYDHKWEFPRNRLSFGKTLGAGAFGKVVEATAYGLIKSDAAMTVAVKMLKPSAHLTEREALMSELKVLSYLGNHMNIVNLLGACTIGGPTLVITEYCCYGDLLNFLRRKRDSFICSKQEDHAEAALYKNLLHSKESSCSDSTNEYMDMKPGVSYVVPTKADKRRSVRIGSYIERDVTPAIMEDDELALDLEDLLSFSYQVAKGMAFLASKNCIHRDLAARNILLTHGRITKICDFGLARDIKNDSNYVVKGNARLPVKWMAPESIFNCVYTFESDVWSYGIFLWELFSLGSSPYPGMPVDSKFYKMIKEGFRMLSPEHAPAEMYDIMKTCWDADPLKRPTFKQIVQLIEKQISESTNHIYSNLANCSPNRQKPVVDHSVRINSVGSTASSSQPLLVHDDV
# assayInfo: Kinase screening assay (IC50)
# measurementConditions: read-out: Kinase Screening (IC50) c-KIT
pIC50: −log10 of the molar value.
measuredMetric: pIC50

1) COc1cc(-c2nn(CCN3CCC(N4CCCC4)CC3)c3ncnc(N)c23)ccc1NC(=O)OC(C)(C)C    < 6.00
2) COc1cc(-c2nn(CCN3CCC(N(C)C)CC3)c3ncnc(N)c23)ccc1CC(=O)OC(C)(C)C    < 6.00
3) COc1cc(-c2nn(CCN3CCC(N(C)C)CC3)c3ncnc(N)c23)ccc1NCc1ccccc1    6.00 to 7.00
4) CN(C)C1CCN(CCn2nc(-c3ccc(CC(=O)OC(C)(C)C)cc3)c3c(N)ncnc32)CC1    < 6.00
5) COc1cc(-c2nn(CCN3CCC(N(C)C)CC3)c3ncnc(N)c23)ccc1NC(=O)OC(C)(C)C    < 6.00
6) COc1cc(-c2nn(CCN3CCC(N4CCCCC4)CC3)c3ncnc(N)c23)ccc1NC(=O)OC(C)(C)C    < 6.00

###

# measuredTarget: CYP2D6 (Homo sapiens (Human))
# Sequence (P10635 whole entry): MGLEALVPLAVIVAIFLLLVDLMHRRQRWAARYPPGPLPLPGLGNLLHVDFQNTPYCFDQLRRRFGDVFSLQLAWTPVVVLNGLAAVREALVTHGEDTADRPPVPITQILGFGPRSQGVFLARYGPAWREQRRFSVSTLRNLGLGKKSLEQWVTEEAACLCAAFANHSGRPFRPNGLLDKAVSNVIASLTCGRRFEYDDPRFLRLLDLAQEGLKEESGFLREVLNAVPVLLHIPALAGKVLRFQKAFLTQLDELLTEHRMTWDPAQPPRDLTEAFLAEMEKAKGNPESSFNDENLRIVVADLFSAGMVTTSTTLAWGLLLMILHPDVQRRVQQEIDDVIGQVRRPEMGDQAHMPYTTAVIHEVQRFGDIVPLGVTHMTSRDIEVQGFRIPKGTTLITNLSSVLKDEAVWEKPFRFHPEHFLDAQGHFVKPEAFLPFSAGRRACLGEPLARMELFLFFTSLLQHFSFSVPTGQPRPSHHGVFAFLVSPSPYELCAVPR
# assayInfo: CYP P450 inhibition
measuredMetric: inhibition at 10 µM (%)

1. COc1cc(-c2nn(CCN3CCC(N(C)C)CC3)c3ncnc(N)c23)ccc1NC(=O)OC(C)(C)C [Compound 506]    31.8
2. COc1cc(-c2nn(CCN3CCC(N4CCCC4)CC3)c3ncnc(N)c23)ccc1NC(=O)OC(C)(C)C [Compound 518]    6.7
3. COc1cc(-c2nn(CCN3CCC(N(C)C)CC3)c3ncnc(N)c23)ccc1CC(=O)OC(C)(C)C [Compound 565]    9.4
4. COc1cc(-c2nn(CCN3CCC(N4CCCCC4)CC3)c3ncnc(N)c23)ccc1NC(=O)OC(C)(C)C [Compound 519]    3
5. COc1cc(-c2nn(CCN3CCC(N(C)C)CC3)c3ncnc(N)c23)ccc1NCc1ccccc1 [Compound 533]    7.4

###

# measuredTarget: mTOR (Homo sapiens (Human))
# assayInfo: Kinase screening assay (IC50)
# Type: biochemical
# measurementConditions: recombinant kinase; read-out: IC50 mTOR
pIC50: −log10 of the molar value.
measuredMetric: pIC50

1) COc1cc(-c2nn(CCN3CCC(CN(C)C)CC3)c3ncnc(N)c23)ccc1NC(=O)OC(C)(C)C    < 5.00

###

# measuredTarget: HCK (Homo sapiens (Human))
# Sequence (P08631 whole entry): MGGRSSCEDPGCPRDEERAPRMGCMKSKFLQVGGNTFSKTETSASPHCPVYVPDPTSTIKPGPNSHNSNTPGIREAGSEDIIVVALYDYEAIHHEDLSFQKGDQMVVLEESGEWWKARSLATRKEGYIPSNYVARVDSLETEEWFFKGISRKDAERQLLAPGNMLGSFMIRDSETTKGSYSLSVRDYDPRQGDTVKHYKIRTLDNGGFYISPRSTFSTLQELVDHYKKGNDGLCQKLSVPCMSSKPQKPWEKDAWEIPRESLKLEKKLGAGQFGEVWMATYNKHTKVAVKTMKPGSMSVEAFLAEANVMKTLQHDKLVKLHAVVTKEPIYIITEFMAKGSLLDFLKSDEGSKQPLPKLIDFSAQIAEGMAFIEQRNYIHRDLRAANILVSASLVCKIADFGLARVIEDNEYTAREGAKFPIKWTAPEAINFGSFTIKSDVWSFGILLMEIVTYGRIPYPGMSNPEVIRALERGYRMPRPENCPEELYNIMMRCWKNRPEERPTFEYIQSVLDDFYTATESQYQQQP
# assayInfo: Kinase screening assay (IC50)
# measurementConditions: read-out: Target inhibition (IC50) HCK; 10 μM ATP
measuredMetric: IC50

1. Cc1ccc(-c2nn(CCN3CCN(C)CC3)c3ncnc(N)c23)cc1    > 1000 nM
2. Cc1ccc(-c2nn(CCN3CCC(CCN(C)C)CC3)c3ncnc(N)c23)cc1    > 1000 nM
3. COc1cc(-c2nn(CCN3CCC(N4CCCC4)CC3)c3ncnc(N)c23)ccc1NC(=O)OC(C)(C)C    < 10 nM
4. COc1cc(-c2nn(CCN3CCC(N4CCCCC4)CC3)c3ncnc(N)c23)ccc1NC(=O)OC(C)(C)C    < 10 nM
5. COc1cc(-c2nn(CCN3CCC(CN(C)C)CC3)c3ncnc(N)c23)ccc1NC(=O)OC(C)(C)C    < 10 nM
6. CN(C)C1CCN(CCn2nc(-c3cnc4[nH]ccc4c3)c3c(N)ncnc32)CC1    > 1000 nM
7. COc1cc(-c2nn(CCN3CCC(N(C)C)CC3)c3ncnc(N)c23)ccc1NCc1ccccc1    < 10 nM
8. Cc1ccc(-c2nn(CCN3CCC(CN(C)C)CC3)c3ncnc(N)c23)cc1    > 1000 nM
9. Cc1ccc(-c2nn(CCN3CCN(CCN(C)C)CC3)c3ncnc(N)c23)cc1    > 1000 nM
